Test: small-molecule microarray binders of probe aLefty2, primary screen, biochemical, biotinylated probe, 635/667 nm fluorescence (AID 1094);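 also: score merges spot fluorescence near 667 nm with spot signal-to-noise ratio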
Settings: higher = more signal
Everything with composite z-score lower than 0.004 is Criterion not met; everything else, including exactly 0.004, is Criterion met.

Is it the case that Cc1c(NC(=O)/C(C#N)=C/C=C/c2ccccc2[N+](=O)[O-])c(=O)n(-c2ccccc2)n1C has composite z-score reaching or exceeding 0.004?
Criterion not met

Moving on to [N-]=[N+]=Nc1ccccc1[C@@H]1OC(c2ccc(OCCCO)cc2)=N[C@]1(CCS(=O)(=O)c1ccccc1)C(=O)NCCN1CCOCC1
Criterion met

Moving on to CC(C)C(=C=CC[C@H](O)c1ccc(OCCO)cc1)C[C@H](O)c1cc(Cl)cc(Cl)c1O
Criterion met

Moving on to COc1ccc(C(O)C2C=CC3C(=O)N(C)C(=O)C3N2N2CCCCC2)cc1 (stereo not drawn)
Criterion met

Moving on to C=C(/C=C/CNS(=O)(=O)c1ccc(C)cc1)[C@H](O)[C@H]1CCCN1S(=O)(=O)c1ccccc1[N+](=O)[O-]
Criterion not met

Moving on to COC(=O)[C@@]1(Cc2ccccc2)[C@H]2c3cc(C(=O)N4CCCC4)n(Cc4cc(F)cc5c4OCOC5)c3C[C@H]2CN1C(=O)c1ccccc1
Criterion met

Moving on to CC1CC/C=C\[C@H]2OC34C=CCN(CCN5CCOCC5)C(=O)[C@H]3N(CCO)C(=O)[C@@H]4C2C(=O)O1 (stereo partly drawn)
Criterion not met

Moving on to CCOC(=O)C[C@H]1[C@H](OC(=O)c2ccc(C(=O)c3ccccc3)cc2)[C@@H](NC(=O)c2ccc3ccccc3c2)c2cc(OCCCO)ccc2N1C(=O)c1ccccc1
Criterion met

Moving on to C#CCNC(=O)[C@H](Cc1ccccc1)NC(=O)[C@@H](N=[N+]=[N-])C(C)C
Criterion not met

Moving on to C[N+](C)(C)CCCC[C@@H]1NC(=O)[C@@H]2C[C@H](C(=O)O)[C@H](c3ccc(O)cc3)N2C1=O
Criterion not met

Moving on to CCCCC(=C=CC[C@@H](O)c1ccc(OCCO)cc1)C[C@@H](O)COCc1ccccc1
Criterion not met

Moving on to O=C1O[C@@H](c2ccccc2)[C@@H](c2ccccc2)N2[C@@H](c3ccc(O)cc3)[C@]3(C(=O)Nc4ccccc43)[C@@H](C(=O)Nc3nc4ccccc4s3)[C@H]12
Criterion not met

Moving on to CC(C)(C)OC(=O)CC[C@]1(C(=O)N2CCOCC2)N=C(c2ccc(OCCCO)cc2)O[C@H]1c1ccccc1
Criterion not met
